target: cynomolgus monkey (cyno) TIGIT protein (cynomolgus monkey, UniProt A0A7N9I9V4 89-209); experiment: SPR, captured mAb
Sequence (A0A7N9I9V4 entry or part of it): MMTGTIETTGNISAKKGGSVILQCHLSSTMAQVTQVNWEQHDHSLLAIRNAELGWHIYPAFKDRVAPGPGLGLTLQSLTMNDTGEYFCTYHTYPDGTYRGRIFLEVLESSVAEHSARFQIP
Readout name: koff
For clarity, give the value followed by its unit.

Answered cases to consult:
- h7E7.L1H1 (antibody, V domains shown, First humanized version; FR/HVR pieces in order; also called h1.7E7.L1H1) VH: EVQLVQSGAEVKKPGASVKVSCKASGYTFTEYSIYWVRQAPGQRLEIIGRIDPKNGRTYYVDKFKNRATLTADTSASTAYMELSSLRSEDTAVYFCTRIYGFYFDFWGQGTLVTVSS VL: DIQLTQSPSFLSASVGDRVTITCKGSQNVNKYLVWYQQKPGKAPKLLIYNTDNLQSGIPSRFSGSGSGTEYTLTISSLQPEDFATYFCYQYNNGFTFGQGTKVEIK: 0.000152 s⁻¹
- h15C8.L1H7 (antibody, V domains shown, VH: T71R against h15C8.L1H1; FR/HVR pieces) VH: EVQLVQSGAEVKKPGASVKVSCKASGYTFTEHSIYWLRQAPGQRLEIIGRIDPKNGRTYFVDKFKNRATLTRDTSASTAYMELSSLRSEDTAVYFCARIDGFYFDFWGQGTLVTVSS VL: DIQLTQSPSFLSASVGDRVTITCKGSQNVNKYLVWYQQKPGKAPKLLIYSTDNLQSGIPSRFSGSGSGTEYTLTISSLQPEDFATYFCYQYNNGFTFGQGTKVEIK: 0.000206 s⁻¹

Now take the following binder into account.
Q: Give koff for h15C8.L1H4 (antibody, V domains shown, VH: I48M against h15C8.L1H1; FR/HVR pieces) VH: EVQLVQSGAEVKKPGASVKVSCKASGYTFTEHSIYWLRQAPGQRLEIMGRIDPKNGRTYFVDKFKNRATLTTDTSASTAYMELSSLRSEDTAVYFCARIDGFYFDFWGQGTLVTVSS VL: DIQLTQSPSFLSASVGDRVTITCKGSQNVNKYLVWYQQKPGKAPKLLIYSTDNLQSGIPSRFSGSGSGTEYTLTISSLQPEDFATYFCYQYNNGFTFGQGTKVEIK
A: 0.000558 s⁻¹
